Give measured relative viability for each item. Keep answers brief.
tested on: NCI-H1648; assay: relative viability (nuclei count vs DMSO), 5 days (fraction); higher = more cells survive; settings: first compound 0.01581 µM

1) COc1cc2nccc(Oc3ccc(NC(=O)Nc4cc(C)on4)c(Cl)c3)c2cc1OC [Tivozanib] + Cc1cc(Nc2cc(N3CCN(C)CC3)nc(Sc3ccc(NC(=O)C4CC4)cc3)n2)n[nH]1 [Tozasertib] (partner 0.1 µM): 0.534
2) Nc1ccn([C@@H]2O[C@H](CO)[C@@H](O)[C@@H]2O)c(=O)n1 [Cytarabine] + O=C(c1cc(Cc2n[nH]c(=O)c3ccccc23)ccc1F)N1CCN(C(=O)C2CC2)CC1 [Olaparib] (partner 8 µM): 0.793
3) Nc1ccn([C@@H]2O[C@H](CO)[C@@H](O)[C@@H]2O)c(=O)n1 [Cytarabine] + COc1cccc2cc(-c3nc([C@H]4CC[C@H](C(=O)O)CC4)n4ncnc(N)c34)[nH]c12 [OSI-027] (partner 0.5 µM): 0.266
4) COc1cc2nccc(Oc3ccc(NC(=O)Nc4cc(C)on4)c(Cl)c3)c2cc1OC [Tivozanib] + NC(=O)Nc1cc(-c2cccc(F)c2)sc1C(=O)N[C@H]1CCCNC1 [AZD7762] (partner 0.2 µM): 0.708

Continue with the compound presented below.
Memo: COc1cc2nccc(Oc3ccc(NC(=O)Nc4cc(C)on4)c(Cl)c3)c2cc1OC [Tivozanib] + CC(=O)c1c(C)c2cnc(Nc3ccc(N4CCNCC4)cn3)nc2n(C2CCCC2)c1=O [Palbociclib] (partner 0.5 µM) , reported relative viability: 0.272

----------
test system: SK-LU-1; assay: relative viability (nuclei count vs DMSO), 5 days (fraction); higher = more cells survive; settings: first compound 500 µM
REPORTED ENDPOINT: relative viability
Answers are plain numbers.

See these solved cases before continuing.
1. O=C(O)CCCCC(CCSCc1ccccc1)SCc1ccccc1 (centres undefined) [CPI-613] + CC1(C)CCC(c2ccc(Cl)cc2)=C(CN2CCN(c3ccc(C(=O)NS(=O)(=O)c4ccc(N[C@H](CCN5CCOCC5)CSc5ccccc5)c(S(=O)(=O)C(F)(F)F)c4)cc3)CC2)C1 [Navitoclax] (partner 0.5 µM): 0.156
2. O=C(O)CCCCC(CCSCc1ccccc1)SCc1ccccc1 (centres undefined) [CPI-613] + O=C(c1cc(Cc2n[nH]c(=O)c3ccccc23)ccc1F)N1CCN(C(=O)C2CC2)CC1 [Olaparib] (partner 8 µM): 0.238
3. O=C(O)CCCCC(CCSCc1ccccc1)SCc1ccccc1 (centres undefined) [CPI-613] + Nc1ncn([C@H]2C[C@H](O)[C@@H](CO)O2)c(=O)n1 [Decitabine] (partner 2 µM): 0.0957

Turning now to a further record.
In plain terms, O=C(O)CCCCC(CCSCc1ccccc1)SCc1ccccc1 (centres undefined) [CPI-613] + C[C@]1(O)C[C@@H](c2nc(-c3ccc4ccc(-c5ccccc5)nc4c3)c3c(N)nccn32)C1 [Linsitinib] (partner 1 µM) has a documented relative viability of 0.122

----------
I'd be grateful if you could share measured relative viability for these entries.
test system: NCI-H2009; assay: relative viability (nuclei count vs DMSO), 5 days (fraction); higher = more cells survive; settings: first compound 500 µM
Numbers only.

// below: answered compounds
1. O=C(O)CCCCC(CCSCc1ccccc1)SCc1ccccc1 (stereo not given) [CPI-613] + Cc1cc(Nc2cc(N3CCN(C)CC3)nc(Sc3ccc(NC(=O)C4CC4)cc3)n2)n[nH]1 [Tozasertib] (partner 0.1 µM): 0.0212
2. O=C(O)CCCCC(CCSCc1ccccc1)SCc1ccccc1 (stereo not given) [CPI-613] + COc1cccc2cc(-c3nc([C@H]4CC[C@H](C(=O)O)CC4)n4ncnc(N)c34)[nH]c12 [OSI-027] (partner 0.5 µM): 0.0289

Kindly give each listed record's relative viability.
1. O=C(O)CCCCC(CCSCc1ccccc1)SCc1ccccc1 (stereo not given) [CPI-613] + Cc1nc(NC(=O)N2CCC[C@H]2C(N)=O)sc1-c1ccnc(C(C)(C)C(F)(F)F)c1 [Alpelisib] (partner 2 µM)
2. O=C(O)CCCCC(CCSCc1ccccc1)SCc1ccccc1 (stereo not given) [CPI-613] + COc1cc2c(Oc3ccc(NC(=O)C4(C(=O)Nc5ccc(F)cc5)CC4)cc3F)ccnc2cc1OCCCN1CCOCC1 [Foretinib] (partner 0.25 µM)
3. O=C(O)CCCCC(CCSCc1ccccc1)SCc1ccccc1 (stereo not given) [CPI-613] + C[C@]1(O)C[C@@H](c2nc(-c3ccc4ccc(-c5ccccc5)nc4c3)c3c(N)nccn32)C1 [Linsitinib] (partner 1 µM)

[reply]
1: 0.014; 2: 0.019; 3: 0.019

----------
system: SK-LU-1; assay: relative viability (nuclei count vs DMSO), 5 days (fraction); higher = more cells survive; conditions: first compound 0.0002 µM
REPORTED ENDPOINT: relative viability
Numbers only.

relative viability measured on CC(=O)O[C@@]12CO[C@@H]1C[C@H](O)[C@@]1(C)C(=O)[C@H](O)C3=C(C)[C@@H](OC(=O)[C@H](O)[C@@H](NC(=O)OC(C)(C)C)c4ccccc4)C[C@@](O)([C@@H](OC(=O)c4ccccc4)[C@H]21)C3(C)C [Docetaxel] + Cc1nc(NC(=O)N2CCC[C@H]2C(N)=O)sc1-c1ccnc(C(C)(C)C(F)(F)F)c1 [Alpelisib] (partner 2 µM) = 0.766

----------
system: HCC-78; assay: relative viability (nuclei count vs DMSO), 5 days (fraction); higher = more cells survive; details: first compound 5 µM
Record form. Attribute: relative viability. Fill in for each entry.
One number for each entry.

1) O=C(O)CCCCC(CCSCc1ccccc1)SCc1ccccc1 (centres undefined) [CPI-613] + CS(=O)(=O)CCNCc1ccc(-c2ccc3ncnc(Nc4ccc(OCc5cccc(F)c5)c(Cl)c4)c3c2)o1 [Lapatinib] (partner 2 µM): 0.825
2) O=C(O)CCCCC(CCSCc1ccccc1)SCc1ccccc1 (centres undefined) [CPI-613] + COc1cc2c(Oc3ccc(NC(=O)C4(C(=O)Nc5ccc(F)cc5)CC4)cc3F)ccnc2cc1OCCCN1CCOCC1 [Foretinib] (partner 0.25 µM): 0.497
3) O=C(O)CCCCC(CCSCc1ccccc1)SCc1ccccc1 (centres undefined) [CPI-613] + CC1(C)CCC(c2ccc(Cl)cc2)=C(CN2CCN(c3ccc(C(=O)NS(=O)(=O)c4ccc(N[C@H](CCN5CCOCC5)CSc5ccccc5)c(S(=O)(=O)C(F)(F)F)c4)cc3)CC2)C1 [Navitoclax] (partner 0.5 µM): 0.731

Shift focus to the following entry.
Please fill in: relative viability reported for O=C(O)CCCCC(CCSCc1ccccc1)SCc1ccccc1 (centres undefined) [CPI-613] + CS(=O)(=O)N1CCN(Cc2cc3nc(-c4cccc5[nH]ncc45)nc(N4CCOCC4)c3s2)CC1 [Pictilisib] (partner 1 µM) = 0.203

----------
test system: NCI-H2009; experiment: relative viability (nuclei count vs DMSO), 5 days (fraction); higher = more cells survive; conditions: first compound 0.04 µM
REPORTED ENDPOINT: relative viability
Numbers only.

1) Cc1sc2c(c1C)C(c1ccc(Cl)cc1)=N[C@@H](CC(=O)OC(C)(C)C)c1nnc(C)n1-2 [JQ1] + COc1cccc2cc(-c3nc([C@H]4CC[C@H](C(=O)O)CC4)n4ncnc(N)c34)[nH]c12 [OSI-027] (partner 0.5 µM): 0.558

Please look at the items below and tell me relative viability for each one, in order.
1. Cc1sc2c(c1C)C(c1ccc(Cl)cc1)=N[C@@H](CC(=O)OC(C)(C)C)c1nnc(C)n1-2 [JQ1] + CC(C)C[C@H](NC(=O)[C@H](Cc1ccccc1)NC(=O)c1cnccn1)B(O)O [Bortezomib] (partner 0.002 µM)
2. Cc1sc2c(c1C)C(c1ccc(Cl)cc1)=N[C@@H](CC(=O)OC(C)(C)C)c1nnc(C)n1-2 [JQ1] + CC(=O)Nc1cccc(-n2c(=O)n(C3CC3)c(=O)c3c(Nc4ccc(I)cc4F)n(C)c(=O)c(C)c32)c1 [Trametinib] (partner 0.02 µM)
3. Cc1sc2c(c1C)C(c1ccc(Cl)cc1)=N[C@@H](CC(=O)OC(C)(C)C)c1nnc(C)n1-2 [JQ1] + Nc1nc2[nH]cc(CCc3ccc(C(=O)N[C@@H](CCC(=O)O)C(=O)O)cc3)c2c(=O)[nH]1 [Pemetrexed] (partner 0.2 µM)
4. Cc1sc2c(c1C)C(c1ccc(Cl)cc1)=N[C@@H](CC(=O)OC(C)(C)C)c1nnc(C)n1-2 [JQ1] + CC(=O)c1c(C)c2cnc(Nc3ccc(N4CCNCC4)cn3)nc2n(C2CCCC2)c1=O [Palbociclib] (partner 0.5 µM)

[reply]
1. 0.947
2. 0.234
3. 0.958
4. 0.181

----------
test system: NCI-H2085; assay: relative viability (nuclei count vs DMSO), 5 days (fraction); higher = more cells survive; conditions: first compound 158.11 µM
REPORTED ENDPOINT: relative viability
Answers are plain numbers.

Solved cases below.
1. O=C(O)CCCCC(CCSCc1ccccc1)SCc1ccccc1 (stereo unspecified) [CPI-613] + NC(=O)Nc1cc(-c2cccc(F)c2)sc1C(=O)N[C@H]1CCCNC1 [AZD7762] (partner 0.2 µM): 0.856
2. O=C(O)CCCCC(CCSCc1ccccc1)SCc1ccccc1 (stereo unspecified) [CPI-613] + Nc1ncn([C@H]2C[C@H](O)[C@@H](CO)O2)c(=O)n1 [Decitabine] (partner 2 µM): 0.437
3. O=C(O)CCCCC(CCSCc1ccccc1)SCc1ccccc1 (stereo unspecified) [CPI-613] + CS(=O)(=O)N1CCN(Cc2cc3nc(-c4cccc5[nH]ncc45)nc(N4CCOCC4)c3s2)CC1 [Pictilisib] (partner 1 µM): 0.383
4. O=C(O)CCCCC(CCSCc1ccccc1)SCc1ccccc1 (stereo unspecified) [CPI-613] + Cc1cc(Nc2cc(N3CCN(C)CC3)nc(Sc3ccc(NC(=O)C4CC4)cc3)n2)n[nH]1 [Tozasertib] (partner 0.1 µM): 0.386
5. O=C(O)CCCCC(CCSCc1ccccc1)SCc1ccccc1 (stereo unspecified) [CPI-613] + Nc1nc2[nH]cc(CCc3ccc(C(=O)N[C@@H](CCC(=O)O)C(=O)O)cc3)c2c(=O)[nH]1 [Pemetrexed] (partner 0.2 µM): 0.492

Go through the list and state relative viability for each entry.
1. O=C(O)CCCCC(CCSCc1ccccc1)SCc1ccccc1 (stereo unspecified) [CPI-613] + Cc1nc(Nc2ncc(C(=O)Nc3c(C)cccc3Cl)s2)cc(N2CCN(CCO)CC2)n1 [Dasatinib] (partner 0.075 µM)
2. O=C(O)CCCCC(CCSCc1ccccc1)SCc1ccccc1 (stereo unspecified) [CPI-613] + Cc1nc(NC(=O)N2CCC[C@H]2C(N)=O)sc1-c1ccnc(C(C)(C)C(F)(F)F)c1 [Alpelisib] (partner 2 µM)
3. O=C(O)CCCCC(CCSCc1ccccc1)SCc1ccccc1 (stereo unspecified) [CPI-613] + O=C(c1cc(Cc2n[nH]c(=O)c3ccccc23)ccc1F)N1CCN(C(=O)C2CC2)CC1 [Olaparib] (partner 8 µM)
4. O=C(O)CCCCC(CCSCc1ccccc1)SCc1ccccc1 (stereo unspecified) [CPI-613] + COc1cccc2cc(-c3nc([C@H]4CC[C@H](C(=O)O)CC4)n4ncnc(N)c34)[nH]c12 [OSI-027] (partner 0.5 µM)
5. O=C(O)CCCCC(CCSCc1ccccc1)SCc1ccccc1 (stereo unspecified) [CPI-613] + CC(C)C[C@H](NC(=O)[C@H](Cc1ccccc1)NC(=O)c1cnccn1)B(O)O [Bortezomib] (partner 0.002 µM)

[reply]
[0.242, 0.591, 0.362, 0.308, 0.873]

Given the compound O=C(O)CCCCC(CCSCc1ccccc1)SCc1ccccc1 (stereo unspecified) [CPI-613] + COc1cc2c(Oc3ccc(NC(=O)C4(C(=O)Nc5ccc(F)cc5)CC4)cc3F)ccnc2cc1OCCCN1CCOCC1 [Foretinib] (partner 0.25 µM) and test system NCI-H2085, the measured relative viability is 0.286
